Tested on: K562
Assay: NCI tumour cell line growth inhibition, 48 h
Active and inactive are the calls of the source. Cut-off read from the data, not from the text of the source: active = GI50 up to about 1.1 µM and inactive = higher.
Value kind: GI50

Please review the following examples before continuing.
• CC(C)(Oc1ccc(C(=O)c2ccc(Cl)cc2)cc1Cl)C(=O)N1CCN(c2ccccc2)CC1 = 34.4 µM (inactive)
• Nc1ncnc2c1ncn2[C@H]1C=C[C@@H](NO)C1 = > 100 µM (inactive)

Recorded GI50 of CC(C)C1OC(/C=C/c2ccccc2)OCC1(C)C (stereo not given) , please.
25.4 µM (inactive)

Recorded GI50 of `CCOP(=O)(OCC)/C(C#N)=C/c1ncc[nH]1` , please.
> 100 µM (inactive)

Recorded GI50 of `CCN(CC)c1cccc2c1/C(=N/O)CCCC2` , please.
46.8 µM (inactive)

Recorded GI50 of `N#CCN(Cc1ccccc1)[C@H]1CCC[C@]1(O)/C=C/c1ccc2c(c1)OCO2` , please.
24.5 µM (inactive)

Recorded GI50 of `CCC(CC)C(=O)OC[n+]1cccc(-c2c(COC(=O)NC(C)C)c(COC(=O)NC(C)C)c3n2CCC3)c1` , please.
97.5 µM (inactive)

====

Tested on: TK-10
Test: NCI tumour cell line growth inhibition, 48 h
Calls of active or inactive are those of the source. No stated cut-off is given here; in the data, active = GI50 up to about 1.1 µM and inactive = higher.
Value kind: GI50

Please review the following examples before continuing.
- COc1ccc(-c2c(C#N)c(N)nc(Sc3ccccc3N)c2C#N)cc1: 10.9 µM (inactive)
- NC(=S)c1cccc(C2Nc3ccccc3O2)c1 (stereo not drawn): 81.1 µM (inactive)

Please look at the following molecule next.
Recorded GI50 of `[N-]=[N+]=Nc1ccc(S(=O)(=O)Oc2cc(OS(=O)(=O)c3ccc(N=[N+]=[N-])cc3)cc(OS(=O)(=O)c3ccc(N=[N+]=[N-])cc3)c2)cc1` , please.
> 100 µM (inactive)

====

Test system: CCRF-CEM
Assay: NCI tumour cell line growth inhibition, 48 h
Activity calls are given as the source filed them. No stated cut-off is given here; in the data, active = GI50 up to about 1.1 µM and inactive = higher. Where a SMILES comes first, the peptide text is derived from it. [ ]: non-standard residue; d: D form. The star is where a group is joined. ξ: configuration not given here. ξNMe2Val = CC(C)C(C(=O)*)N(C)C; NMeV = CN[CH](C(=O)O)C(C)C; NHBn = c1ccc(CN*)cc1
Give one outcome, nothing more. List: active, inactive

Completed entries (count: 5):
* COc1ccc(C)cc1-c1ccc(-c2cc(C)ccc2OC)o1 | inactive
* COC(=O)[C@@]12C3=NO[C@]1(C(=O)OC)C(O[Si](C)(C)C(C)(C)C)[C@@H](OC(C)=O)[C@@H](OC(C)=O)[C@@H]2[C@@H](OCc1ccccc1)CC3 (stereo not given in full) | inactive
* COc1ccc(/C=C(/C#N)C(N)=O)cc1OC | inactive
* CC(C)C(NC(=O)C(C(C)C)N(C)C)C(=O)N(C)C(C(=O)N1CCCC1C(=O)N1CCCC1C(=O)NCc1ccccc1)C(C)C (stereo not given) (ξNMe2Val-V[NMeV]PP-NHBn; configuration not given here) | active
* CN1C(=O)CCC1c1ccc2c(c1)oc(=O)n2C (stereo not given) | inactive

Please turn your attention to the following entry.
Per the assay record, what outcome was assigned to C=C1CC2(CCS(=O)(=O)c3ccccc32)OC1=O (stereo not given) ?
inactive

====

System: U-251
Experiment: NCI tumour cell line growth inhibition, 48 h
Active and inactive are the calls of the source. No stated cut-off is given here; in the data, active = GI50 up to about 1.1 µM and inactive = higher.
Give one outcome, nothing more. List: active, inactive

Completed entries (count: 4):
• CC(C)(Br)C(Br)CC/C(=C/CBr)CBr.CC(C)(Br)C(Br)CC/C(=C\CBr)CBr (configuration not stated) = inactive
• COc1cc2c(c(OC)c1OC)-c1ccc(SC)c(=O)cc1[C@@H](NC(=O)c1ccc(Cl)cc1)CC2 = active
• COC1C(O)C(C)OC(OC2C(Oc3cccc4c(O)c5c(=O)oc6ccc(C)c7c(=O)oc(c34)c5c67)OC(C)C3O[C@H](c4ccccc4)OC32)C1O (some centres not stated) = active
• COc1ccc(/C(=N\NC(=S)NN)C(c2ccc(OC)cc2)C2C(=O)Oc3ccccc32)cc1 (configuration not stated) = inactive

Please turn your attention to the following entry.
Per the assay record, what outcome was assigned to `COc1cccc(/C(Cl)=C(\C=O)c2cccc(OC)c2)c1` ?
inactive
